molecular target: hT1R1/hT1R3 umami receptor (Homo sapiens, UniProt Q7RTX0+Q7RTX1); construct: expressed in transfected cells; host or cells: HEK293 derivative stably expressing Gα15, clone I-17, expression induced with mifepristone; test: In vitro hT1R1/hT1R3 umami taste receptor activation assay (FLIPR, dose response); type: cell-based; details: Table A, Umami Amides; read-out: Umami EC50
Sequence (Q7RTX1 21-841): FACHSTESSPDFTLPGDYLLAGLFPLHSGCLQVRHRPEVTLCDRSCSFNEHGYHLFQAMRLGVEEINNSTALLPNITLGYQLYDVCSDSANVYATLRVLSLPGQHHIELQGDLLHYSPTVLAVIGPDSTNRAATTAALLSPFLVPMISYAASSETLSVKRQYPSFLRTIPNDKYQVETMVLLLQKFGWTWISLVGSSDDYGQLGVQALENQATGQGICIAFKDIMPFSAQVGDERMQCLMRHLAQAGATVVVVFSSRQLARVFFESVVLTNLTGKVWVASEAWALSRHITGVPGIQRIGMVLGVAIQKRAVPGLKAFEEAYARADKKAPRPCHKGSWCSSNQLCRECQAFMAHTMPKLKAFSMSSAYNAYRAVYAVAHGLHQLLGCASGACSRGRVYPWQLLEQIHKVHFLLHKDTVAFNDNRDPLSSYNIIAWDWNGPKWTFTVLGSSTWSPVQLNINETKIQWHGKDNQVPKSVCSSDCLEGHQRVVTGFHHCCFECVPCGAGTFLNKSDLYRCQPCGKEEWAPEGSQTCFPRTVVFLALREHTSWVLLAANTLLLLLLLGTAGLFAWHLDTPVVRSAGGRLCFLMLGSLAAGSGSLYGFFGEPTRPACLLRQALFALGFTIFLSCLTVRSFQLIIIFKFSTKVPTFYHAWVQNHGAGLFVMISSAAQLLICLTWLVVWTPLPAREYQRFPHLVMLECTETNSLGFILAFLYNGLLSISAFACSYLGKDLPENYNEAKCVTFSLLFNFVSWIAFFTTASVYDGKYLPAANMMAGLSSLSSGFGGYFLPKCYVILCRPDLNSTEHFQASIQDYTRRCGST
Sequence (Q7RTX0 21-852): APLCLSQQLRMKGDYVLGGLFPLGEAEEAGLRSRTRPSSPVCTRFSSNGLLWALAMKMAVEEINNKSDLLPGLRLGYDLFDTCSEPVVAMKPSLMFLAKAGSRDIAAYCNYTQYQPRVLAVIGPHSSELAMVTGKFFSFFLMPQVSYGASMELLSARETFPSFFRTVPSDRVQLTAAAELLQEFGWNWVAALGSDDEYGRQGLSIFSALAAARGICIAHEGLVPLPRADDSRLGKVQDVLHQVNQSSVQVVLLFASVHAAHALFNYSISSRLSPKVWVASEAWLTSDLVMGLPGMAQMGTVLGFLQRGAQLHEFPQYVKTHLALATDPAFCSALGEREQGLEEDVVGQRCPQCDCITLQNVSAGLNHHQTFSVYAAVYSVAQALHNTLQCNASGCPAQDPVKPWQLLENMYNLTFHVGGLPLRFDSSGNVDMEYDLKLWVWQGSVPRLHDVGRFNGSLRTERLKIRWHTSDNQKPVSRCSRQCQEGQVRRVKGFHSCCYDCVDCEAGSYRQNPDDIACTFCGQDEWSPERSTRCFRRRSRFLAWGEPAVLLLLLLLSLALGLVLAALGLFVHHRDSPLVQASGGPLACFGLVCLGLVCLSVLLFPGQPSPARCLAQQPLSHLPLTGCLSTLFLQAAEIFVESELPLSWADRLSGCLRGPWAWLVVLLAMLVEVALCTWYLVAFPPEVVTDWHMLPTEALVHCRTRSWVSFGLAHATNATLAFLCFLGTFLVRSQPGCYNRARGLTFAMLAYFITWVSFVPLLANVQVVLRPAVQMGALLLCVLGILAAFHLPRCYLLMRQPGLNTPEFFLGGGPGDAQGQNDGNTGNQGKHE
Listed below: EC50 values for each entry.
Please respond with the number in nM and leave the unit unwritten.

Some solved cases for reference:
COC(=O)[C@@H](CC(C)C)NC(=O)c1cc2ccccc2[nH]1 ... 530
Cc1ccc(C(=O)NC2CCCCC2C)cc1C (stereo not drawn) ... 10
CCCc1ccc(C(=O)N[C@H](CC(C)C)C(=O)OC)cc1 ... 620
CCCOC(=O)[C@@H](CC(C)C)NC(=O)c1ccc2c(c1)OCO2 ... 1580
CCCC(CCC)NC(=O)c1ccc(OC)cc1O ... 1160

Memo: CCOc1ccc(C(=O)N[C@H]2CCc3ccccc32)cc1C , reported EC50: 850

---

Readout Type: melting point

COc1ccccc1CNC(=O)C(=O)NCCc1ccccn1 ... 118 to 119 °C

Memo: COc1ccc(CNC(=O)C(=O)NCCc2ccccn2)cc1C , reported melting point: 145 to 147 °C

Memo: Cc1cc(CNC(=O)C(=O)NCCc2ccccn2)c(C)o1 , reported melting point: 112 to 115 °C

Memo: CCCC(CCC)NC(=O)c1ccc2oc(OCC)nc2c1 , reported melting point: 128 to 129 °C

Memo: CC(C)c1ccc(NC(=O)NCCc2ccccn2)cc1 , reported melting point: 72 to 73 °C

Memo: CCCC(CCC)NC(=O)c1ccc2oc(OC)nc2c1 , reported melting point: 137 to 138 °C

Memo: Cc1cc(C)c2c(c1)C(NC(=O)c1conc1C)CCC2 (stereo not shown) , reported melting point: 57 to 58 °C

Memo: CCCC(CCC)NC(=O)c1ccc2oc(SC)nc2c1 , reported melting point: 113 to 114 °C

Memo: CCCC(CCC)NC(=O)c1ccc2nc(CCl)oc2c1 , reported melting point: 137 to 137.5 °C

Memo: CCOc1ccc(CNC(=O)C(=O)NCCc2ccccn2)c(OC)c1 , reported melting point: 117 to 118 °C

Memo: CCCC(CCC)NC(=O)c1ccc2oc(CC)nc2c1 , reported melting point: 107 to 108 °C

Memo: O=C(N[C@@H]1CCCc2c(O)cccc21)c1cccc(Cl)c1O (stereo in doubt) , reported melting point: 148 to 151 °C

Memo: CCCC(CCC)NC(=O)c1ccc2oc(CCl)nc2c1 , reported melting point: 108.5 to 109 °C

---

molecular target: hT1R1/hT1R3 umami receptor (Homo sapiens, UniProt Q7RTX0+Q7RTX1); construct: expressed in transfected cells; host or cells: HEK293 derivative stably expressing Gα15, clone I-17, expression induced with mifepristone; assay: In vitro hT1R1/hT1R3 umami taste receptor activation assay (FLIPR, dose response); type: cell-based; conditions: read-out: EC50 for activation of a hT1R1/hT1R3 umami receptor expressed in an HEK293 cell line
The threshold is 600 nM. Values of EC50 beneath it are tagged true; values meeting or exceeding it are tagged false.

CC1CCCC(NC(=O)c2ccc3c(c2)OCO3)C1C (centres unmarked) ... true
COC(=O)[C@@H](CC(C)C)NC(=O)c1ccc(SC)cc1OC ... false
CCC(CC(C)C)NC(=O)c1ccc(C)c(C)c1 (centres unmarked) ... true

Below: the item to evaluate.
[in] Is the reported EC50 for CCCC(CC(C)C)NC(=O)c1ccc2c(c1)OCO2 (centres unmarked) strictly below 600 nM?
[out] true
